Form field: inhibition at 10 µM (one value per entry).
# TARGET OR SYSTEM: 5-HT3 (Homo sapiens, UniProt P46098)
# Construct: purchased NIMH Psychoactive Drug Screening Program (PDSP)
# Sequence (P46098 24-478): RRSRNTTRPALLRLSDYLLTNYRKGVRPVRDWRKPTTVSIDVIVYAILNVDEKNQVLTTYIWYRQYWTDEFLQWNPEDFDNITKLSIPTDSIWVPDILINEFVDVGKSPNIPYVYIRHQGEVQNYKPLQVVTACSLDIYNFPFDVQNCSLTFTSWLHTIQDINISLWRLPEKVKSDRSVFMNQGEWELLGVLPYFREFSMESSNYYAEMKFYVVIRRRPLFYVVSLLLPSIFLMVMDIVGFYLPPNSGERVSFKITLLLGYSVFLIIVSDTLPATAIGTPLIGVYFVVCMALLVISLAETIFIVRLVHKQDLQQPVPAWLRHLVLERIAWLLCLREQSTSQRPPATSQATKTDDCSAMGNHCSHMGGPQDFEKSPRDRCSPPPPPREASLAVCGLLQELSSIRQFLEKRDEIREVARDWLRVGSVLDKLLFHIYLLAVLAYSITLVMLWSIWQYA
# PROTOCOL NOTES: PDSP primary binding 5-HT3
# STATED CONDITIONS: 1.5 h; primary binding, 10,000 nM; last figure of the line = mean of the 4 before it; read-out: 5-HT3, PDSP raw data, mean
Answer format: numeric, % implied, no suffix.

Some entries whose results are on file:
For the compound shown here, C#Cc1ccc2c(c1)C(c1ccccn1)=N[C@@H](C)c1c(C(=O)NC)ncn1-2 [Compound 23] , give the reported inhibition at 10 µM. -7.15

For the compound shown here, C#Cc1ccc2c(c1)C(c1ccccn1)=N[C@@H](C)c1c(C(=O)N(C)C)ncn1-2 [Compound 31] , give the reported inhibition at 10 µM. -3.58

For the compound shown here, CC(C)c1noc(-c2ncn3c2[C@@H](C)N=C(c2ccccc2F)c2cc(Cl)ccc2-3)n1 [Compound 37] , give the reported inhibition at 10 µM. 13.5

For the compound shown here, CCc1noc(-c2ncn3c2[C@@H](C)N=C(c2ccccc2F)c2cc(-c4ccccc4)ccc2-3)n1 [Compound 35] , give the reported inhibition at 10 µM. -9.33

For the compound shown here, C#Cc1ccc2c(c1)C(c1ccccc1Cl)=N[C@H](C)c1c(C(=O)N(C)CC)ncn1-2 [Compound 29] , give the reported inhibition at 10 µM. -4.07

Continuing:
For the compound shown here, C#Cc1ccc2c(c1)C(c1ccccc1F)=N[C@H](C)c1c(C(=S)N(C)C)ncn1-2 [Compound 33] , give the reported inhibition at 10 µM. -0.89

For the compound shown here, C[C@H]1N=C(c2ccccc2F)c2cc(-c3ccccc3)ccc2-n2cnc(C(=O)N(C)C)c21 [Compound 5] , give the reported inhibition at 10 µM. -0.89

For the compound shown here, CCc1noc(-c2ncn3c2[C@@H](C)N=C(c2ccccc2F)c2cc(C4CC4)ccc2-3)n1 [Compound 46] , give the reported inhibition at 10 µM. 29.8

For the compound shown here, CCc1noc(-c2ncn3c2CN=C(c2ccccc2F)c2cc(C4CC4)ccc2-3)n1 [Compound 44] , give the reported inhibition at 10 µM. 12.8

For the compound shown here, CCc1noc(-c2ncn3c2[C@@H](C)N=C(c2ccccc2F)c2cc(Cl)ccc2-3)n1 [Compound 36] , give the reported inhibition at 10 µM. -2

For the compound shown here, C#Cc1ccc2c(c1)C(c1ccccc1Cl)=N[C@H](C)c1c(C(=O)NC)ncn1-2 [Compound 21] , give the reported inhibition at 10 µM. 2.85

For the compound shown here, C[C@H]1N=C(c2ccccc2F)c2cc(Cl)ccc2-n2cnc(-c3nc(C4CC4)no3)c21 [Compound 38] , give the reported inhibition at 10 µM. 13.5

The measurements presented in this section are drawn from paper PMC10303271.
